Tested on: HCV genotype 1b I389luc-ubi-neo/NS3-3'/5.1 replicon in Huh5.2 cells
Experiment: microbe, parasite or virus in culture
Type: cell-based, Hepatitis C Virus
Details: Hepatitis C virus, Huh-5-2, 72 h
For each entry below, report its EC50 value.

Documented EC50 of CON(C)C(=O)/C=C/C=C(\C)[C@@H]1C/C=C/C=C/[C@H](O)[C@H](C)[C@@H](O)[C@@H](CCC(C)=O)C(=O)N[C@@H](C(C)C)C(=O)N[C@@H](Cc2cccc(O)c2)C(=O)N2CCCC(N2)C(=O)O1 (stereo partly shown) : 162 nM

Documented EC50 of CCN(CC)C(=O)/C=C/C=C(\C)[C@@H]1C/C=C/C=C/[C@H](O)[C@H](C)[C@@H](O)[C@@H](CCC(C)=O)C(=O)N[C@@H](C(C)C)C(=O)N[C@@H](Cc2cccc(O)c2)C(=O)N2CCCC(N2)C(=O)O1 (stereo partly shown) : 204 nM

Documented EC50 of C=CCNC(=O)/C=C/C=C(\C)[C@@H]1C/C=C/C=C/[C@H](O)[C@H](C)[C@@H](O)[C@@H](CCC(C)=O)C(=O)N[C@@H](C(C)C)C(=O)N[C@@H](Cc2cccc(O)c2)C(=O)N2CCCC(N2)C(=O)O1 (stereo partly shown) : 1600 nM

Documented EC50 of CON(C)C(=O)/C=C/C=C(\C)[C@@H]1C/C=C/C=C/C=C(\C)[C@@H](O)[C@@H](CCC(C)=O)C(=O)N[C@@H](C(C)C)C(=O)N[C@@H](Cc2cccc(O)c2)C(=O)N2CCCC(N2)C(=O)O1 (stereo partly shown) : 293 nM
